# Test system: YANK3
# Construct: gene STK32C
# TEST CONDITIONS: concentration: 1 μM, replicates: in singlicate; n = 1;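 also: KINOMEscan kinase panel screen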
Kindly supply the reported %Inh values for the records listed here.
Give just the number in %; leave the unit off.

## Input Return reported %Inh; argument: COc1ccc(Nc2nccc(N3CCC(NC(=O)C(C)c4ccc(Cl)cc4)CC3)n2)cc1 (stereo not shown)
## Output 1

## Input Record request: %Inh value, item O=C(Nc1n[nH]c2cc(-c3ccsc3)ccc12)C1CC1
## Output 20

## Input Fill in: %Inh of CNC(=O)c1ccc(C)c(-n2c(C)cc(OCc3ccc(F)cc3F)c(Br)c2=O)c1 is ___
## Output 0

## Input Give its %Inh value. Item: COc1cccc(NC(=O)Nc2ccc(C)c(-c3ccc(C(=O)Nc4ccncc4)cc3)c2)c1
## Output 10

---

So I've got a bunch of compounds here, and I need their %Inh values.
# Test system: LATS1
# TEST CONDITIONS: concentration: 1 μM, replicates: in singlicate; n = 1

## Input Give its %Inh value. Item: CCc1ccc(-c2ccc3c(c2)-c2n[nH]cc2S(=O)(=O)N3C)cc1
## Output 0%

## Input Fill blank: measured %Inh of the compound Cc1ccccc1Cn1ccn2c(=O)cc(N3CCOCC3)nc12 is ____.
## Output 0%

## Input Any idea what %Inh was measured for COc1ccc(-c2coc3ccc(-c4nnc(C)o4)cc23)cc1 ?
## Output 0%

## Input Return reported %Inh; argument: Cc1ccc(-c2nc(Nc3ccncc3)c3ccccc3n2)s1
## Output 0%

## Input For the compound shown here, CC(=O)c1cccc(NC(=O)NC2CCN(c3ccnc(Nc4ccc(F)cc4)n3)C2)c1 (stereo not drawn) , give the reported %Inh.
## Output 0%

## Input Can you look up the measured %Inh of COC(=O)c1cccc(NC(=O)NC2CCN(c3ccnc(Nc4ccc(F)cc4)n3)C2)c1 (stereo not drawn) for me?
## Output 0%

## Input For Cc1cccc2c(-c3ccncn3)c(-c3ccc(F)cc3)nn12 , what is its reported %Inh?
## Output 0%

## Input Can you share its %Inh? I mean this compound: Fc1ccc(-c2nc[nH]c2-c2ccncc2)cc1
## Output 0%

## Input Name the reported %Inh value associated with the compound Cc1ccc(NC(=O)Nc2ccccc2F)cc1-c1ccc(C(=O)Nc2ccncc2)cc1
## Output 0%

## Input # lookup: %Inh of Cc1ccccc1-c1cc(-c2c[nH]nc2-c2ccccn2)ccn1
## Output 0%

## Input Name the recorded %Inh for COc1cccc(C2=C(Nc3cc(Cl)c(O)c(Cl)c3)C(=O)NC2=O)c1 .
## Output 1%

## Input # %Inh lookup, item COc1cccc(CNC(=O)NC2CCN(c3ccnc(Nc4ccc(F)cc4)n3)C2)c1 (stereo not drawn)
## Output 10%

## Input Name the recorded %Inh for CSc1ccc(-c2nc3n(c2-c2ccncc2)CCC3)cc1 .
## Output 31%

## Input Recorded %Inh of O=C1NC(=O)C(c2ccc(Cl)cc2)=C1Nc1cccc(Cl)c1 , please.
## Output 0%

## Input Fill in: %Inh of CC(=O)c1c(C)c2cnc(Nc3ccc(N4CCNCC4)cn3)nc2n(C2CCCC2)c1=O is ___
## Output 15%

## Input # input compound: CS(=O)(=O)CCNCc1nc(-c2ccc3ncnc(Nc4ccc5c(cnn5Cc5ccccc5)c4)c3c2)cs1.Cl.Cl ; wanted: its %Inh
## Output 0%

## Input Field request: %Inh | item: CNC(=O)c1ccc(C)c(-n2c(C)cc(OCc3ccc(F)cc3F)c(Br)c2=O)c1
## Output 0%

## Input Quick check: %Inh of CS(=O)(=O)Cc1ccc(Nc2nccc(-c3c(-c4cccc(NC(=O)C5CCCCC5)c4)nn4ncccc34)n2)cc1 ?
## Output 0%

---

Give measured %Inh for each item. Keep answers brief.
# Test system: INSR
# TEST CONDITIONS: concentration: 1 μM, replicates: in singlicate; n = 1
State just the number; it will be interpreted in %.

## Input Given O=c1cc(N2CCOCC2)nc2n(Cc3ccccc3F)ccn12 , state its recorded %Inh.
## Output 0

## Input Given CC(=O)c1cccc(NC(=O)NC2CCN(c3ccnc(Nc4ccc(F)cc4)n3)C2)c1 (stereo not drawn) , state its recorded %Inh.
## Output 12

## Input Given CCn1c(-c2ccccc2)nc2cnccc21 , state its recorded %Inh.
## Output 4

## Input Reported %Inh for CC(=O)c1c(C)c2cnc(Nc3ccc(N4CCNCC4)cn3)nc2n(C2CCCC2)c1=O : what is it?
## Output 0

## Input Dear colleague, I am looking for the recorded %Inh of the following compound: COc1ccc(Nc2nccc(N3CCC(NC(=O)C(C)c4ccc(Cl)cc4)CC3)n2)cc1 (stereo not drawn)
## Output 15

## Input Quick one: %Inh of Cc1ccc(NC(=O)Nc2ccccc2)cc1-c1ccc(C(=O)Nc2ccncc2)cc1 ?
## Output 3

## Input Name the reported %Inh value associated with the compound FC(F)(F)c1ccccc1-c1cc(-c2c[nH]nc2-c2ccccn2)ccn1
## Output 0

## Input Please look up its %Inh: Cl.Cl.Cl.N#Cc1ccc(CCNc2nccc(-c3cccc(CN4CCNCC4)c3)n2)cc1
## Output 87

## Input %Inh lookup needed for CNC(=O)c1ccc(C)c(-n2c(C)cc(OCc3ccc(F)cc3F)c(Br)c2=O)c1 , thanks.
## Output 0

---

# Tested on: EPHB6
# TEST CONDITIONS: concentration: 1 μM, replicates: in singlicate; n = 1
Record form. Attribute: %Inh. Fill in for each entry.
Kindly answer with a numeric value in %, unit omitted.

## Input Which measured %Inh value corresponds to FC(F)(F)c1ccccc1-c1cc(-c2c[nH]nc2-c2ccccn2)ccn1 [GW679396] ?
## Output 100

## Input Param item = Cn1cnc2c(N)ncnc21 [SKF-97623] ; retrieve measured %Inh.
## Output 0

## Input Need %Inh, item CC(=O)c1c(C)c2cnc(Nc3ccn(C)n3)nc2n(C2CCCC2)c1=O
## Output 6

## Input # get_value(readout='%Inh', item= O=C1NC(=O)C(c2ccc(Cl)cc2)=C1Nc1cccc(Cl)c1 [SB-317651] )
## Output 8

## Input Look up %Inh: COC(=O)C(NC(=O)NC1CCN(c2ccnc(Nc3ccc(F)cc3)n2)C1)c1ccccc1 (centres unmarked) [GSK1379712]
## Output 92

---

# Tested on: RPS6KA4(Kin.Dom.1-N-terminal)
# TEST CONDITIONS: concentration: 1 μM, replicates: in singlicate; n = 1
Lab note: compare %Inh against 10%. Equal or greater, write Condition met. Smaller, write Condition not met.

## Input Reported %Inh reaches at least 10% for CNC(=O)c1ccc(C)c(-n2c(C)cc(OCc3ccc(F)cc3F)c(Br)c2=O)c1 ?
## Output Condition met

## Input Does the compound CC(C)c1ccc(O)cc1Nc1ccnc2ccc(C(F)(F)F)cc12 [GW482059] have recorded %Inh that is 10% or more?
## Output Condition met

## Input Check if %Inh >= 10% (inclusive). Item: Cc1cccc2c(-c3ccncn3)c(-c3ccc(F)cc3)nn12 [GW515532]
## Output Condition not met

## Input Is %Inh at least 10%? Consider Cc1c(Cn2c3ccccc3n3c(=O)cc(N4CCOCC4)nc23)cccc1C(F)(F)F [GSK2306394]
## Output Condition met

## Input State whether the measured %Inh reaches 10%, counting equality as reaching it, for CC(=O)c1c(C)c2cnc(Nc3ccn(C)n3)nc2n(C2CCCC2)c1=O
## Output Condition not met

## Input In plain terms: is recorded %Inh at least 10% for Cc1ccc(NC(=O)Nc2ccccc2)cc1-c1ccc(C(=O)Nc2ccncc2)cc1 [GSK1398471] ?
## Output Condition not met

## Input Exam item: decide whether the reported %Inh for COc1ccc(Nc2nccc(NCCNC(=O)Nc3cc(C)ccc3C)n2)cc1 [GSK1379899] is at least 10%.
## Output Condition not met

## Input Record CS(=O)(=O)Cc1ccc(Nc2nccc(-c3c(-c4cccc(NC(=O)C5CCCCC5)c4)nn4ncccc34)n2)cc1 [GSK350559] ; criterion: %Inh no lower than 10%. Met?
## Output Condition not met

## Input Test whether the compound O=C1NC(=O)C(c2ccc(Cl)cc2)=C1Nc1ccc(O)cc1 [SB-340867] records %Inh of 10% or higher.
## Output Condition not met

## Input Does the reported %Inh for CS(=O)(=O)CCNCc1nc(-c2ccc3ncnc(Nc4ccc5c(cnn5Cc5ccccc5)c4)c3c2)cs1.Cl.Cl [GW569716] fall at or above the 10% mark?
## Output Condition met

## Input %Inh >= 10% for COc1nccc(-c2c(-c3ccc(F)cc3)ncn2CCCN2CCOCC2)n1 [SB-282852] ?
## Output Condition met

## Input Check this compound for %Inh at or above 10%: Fc1ccc(-c2nc3n(c2-c2ccncc2)CCS3)cc1 [GI98581]
## Output Condition met
